The entries below come with measured CC50 values attached.
Test system: CCRF-CEM
Procedure details: Cytostatic concentration required to inhibit CEM cell proliferation
Type: functional
Settings: Homo sapiens
Field format: number, assumed µM, no unit text.

Study these solved cases before continuing.
{"Molecule": "COC(=O)[C@@H](C)NP(=O)(OC[C@@H]1C=C[C@H](n2cnc3c(O)nc(N)nc32)C1)Oc1ccccc1 (stereo partly drawn)", "CC50, µM": 78}
{"Molecule": "CCOC(=O)[C@@H](C)NP(=O)(OC[C@@H]1C=C[C@H](n2cnc3c(NC4CC4)nc(N)nc32)C1)Oc1ccccc1 (stereo in doubt; 6)", "CC50, µM": 12}
{"Molecule": "Nc1nc2c(ncn2[C@H]2C=C[C@@H](CO)C2)c(=O)[nH]1", "CC50, µM": 160}

# assay system CCRF-CEM: give CC50 of C[C@@H](NP(=O)(OC[C@@H]1C=C[C@H](n2cnc3c(NC4CC4)nc(N)nc32)C1)Oc1ccccc1)C(=O)OC(C)(C)C (stereo partly drawn) 8.6

System CCRF-CEM. Read-out CC50. Item Nc1nc(NC2CC2)c2ncn([C@H]3C=C[C@@H](COP(=O)(O)O)C3)c2n1 . Report value. 13

# assay system CCRF-CEM: give CC50 of COC(=O)[C@H](C)NP(=O)(OC[C@@H]1C=C[C@H](n2cnc3c(NC4CC4)nc(N)nc32)C1)Oc1ccccc1 (stereo partly drawn) 46

// fetch CC50; item: C[C@@H](NP(=O)(O)OC[C@@H]1C=C[C@H](n2cnc3c(NC4CC4)nc(N)nc32)C1)C(=O)O ; system: CCRF-CEM 8.6
